# Study Target: Carbonic anhydrase 2 (Cryptococcus neoformans)
# Sequence (Q3I4V7 whole entry): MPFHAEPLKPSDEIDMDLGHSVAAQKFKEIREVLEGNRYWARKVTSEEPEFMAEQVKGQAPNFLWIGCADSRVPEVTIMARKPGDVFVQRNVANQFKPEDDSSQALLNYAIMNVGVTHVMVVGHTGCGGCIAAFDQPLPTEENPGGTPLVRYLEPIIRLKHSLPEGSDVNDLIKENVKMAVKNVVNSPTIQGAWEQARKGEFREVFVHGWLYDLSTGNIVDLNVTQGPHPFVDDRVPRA
Value Type: pKi
Just so you know, pKi here is -log10 of the concentration in molar units; reply with that number alone.

[Q] Fill in the blank: the reported pKi of COc1cc([C@@H]2[C@@H](C)[C@H](C)[C@H]2c2ccc(O)c(OC)c2)ccc1O [ENDIANDRIN A] is ____.
[A] 6.11

[Q] Please give the measured pKi for this compound: `COc1cc(CO)cc2oc3ccc(O)c(C(=O)O)c3c(=O)c12`
[A] 5.97

[Q] # input compound: `O=C(Cc1ccc(O)c(Cl)c1)NCCc1ccccc1` ; wanted: its pKi
[A] 6.09

[Q] Can you look up the measured pKi of `COc1cccc(CCNC(=O)Cc2ccc(O)c(Cl)c2)c1` for me?
[A] 6.03

[Q] Which pKi value belongs to `O=C(Cc1ccc(O)c(Cl)c1)NCc1ccccc1` ?
[A] 6.14

[Q] // lookup pKi for `NS(=O)(=O)c1ccc(CCNC(=O)Cc2ccc(O)c(Cl)c2)cc1`
[A] 6.13

[Q] # lookup: pKi of `O=C(O)Cc1ccc(O)cc1`
[A] 6.05

[Q] For the compound COC(=O)/C=C/C(=O)N[C@H](Cc1ccc(O)c(Cl)c1)C(=O)O [(-)-XYLARIAMIDE A] , what pKi is on record?
[A] 5.94

[Q] What pKi value was documented for this compound, `NC(=O)Cc1ccc(O)cc1` ?
[A] 6.08

[Q] What does the data say about its pKi? Entry: `O=C(O)Cc1ccc(O)c(Cl)c1`
[A] 5.95

[Q] For the compound `NC(=O)Cc1ccc(O)c(Cl)c1` , what pKi is on record?
[A] 6.07

[Q] Given COc1cc(C[C@@H](C)[C@H](C)Cc2ccc(O)c(OC)c2)ccc1O [(-)-DIHYDROGUAIARETICACID] , state its recorded pKi.
[A] 6.09

###

# Study Target: PROBABLE TRANSMEMBRANE CARBONIC ANHYDRASE (CARBONATE DEHYDRATASE) (CARBONIC DEHYDRATASE) (Mycobacterium tuberculosis)
# Sequence (P96878 whole entry): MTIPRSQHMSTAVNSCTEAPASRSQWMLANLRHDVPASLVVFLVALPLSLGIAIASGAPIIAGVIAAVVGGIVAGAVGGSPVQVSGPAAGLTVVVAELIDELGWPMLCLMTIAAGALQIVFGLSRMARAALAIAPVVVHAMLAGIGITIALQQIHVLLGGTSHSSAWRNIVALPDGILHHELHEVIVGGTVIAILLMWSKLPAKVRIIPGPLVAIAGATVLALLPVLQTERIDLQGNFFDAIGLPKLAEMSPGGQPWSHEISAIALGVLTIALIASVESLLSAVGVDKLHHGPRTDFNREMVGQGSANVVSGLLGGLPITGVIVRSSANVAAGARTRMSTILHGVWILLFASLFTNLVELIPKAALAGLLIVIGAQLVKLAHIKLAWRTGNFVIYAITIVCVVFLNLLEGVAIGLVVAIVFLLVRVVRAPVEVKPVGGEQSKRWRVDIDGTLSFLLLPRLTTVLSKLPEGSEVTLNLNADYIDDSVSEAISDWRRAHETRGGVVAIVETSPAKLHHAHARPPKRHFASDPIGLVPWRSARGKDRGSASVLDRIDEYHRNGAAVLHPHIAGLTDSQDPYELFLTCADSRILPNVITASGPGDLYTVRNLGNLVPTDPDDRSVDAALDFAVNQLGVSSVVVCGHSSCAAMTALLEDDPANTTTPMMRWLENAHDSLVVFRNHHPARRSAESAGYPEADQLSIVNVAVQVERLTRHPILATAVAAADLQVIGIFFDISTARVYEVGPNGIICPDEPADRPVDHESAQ
Value Type: pKi
Quick note: pKi values are minus log10 of concentrations in mol/L.

[Q] # input compound: `COc1cc(CO)cc2oc3ccc(O)c(C(=O)O)c3c(=O)c12` ; wanted: its pKi
[A] 4.96

[Q] Fill in: pKi of `NC1=N/C(=C\c2ccc(O)c(O)c2)C(=O)N1` is ___
[A] 6.04

[Q] I have this compound here, COC(=O)/C=C/C(=O)N[C@H](Cc1ccc(O)c(Cl)c1)C(=O)O [(-)-XYLARIAMIDE A] , and I need its recorded pKi.
[A] 4.95

[Q] Quick check: pKi of Nc1ccc(S(N)(=O)=O)cc1 [SULFANILAMIDE] ?
[A] 5.15

[Q] # query: pKi of entry `CCCCNC(=O)Cc1ccc(O)c(Cl)c1`
[A] 4.98

[Q] Quick check: pKi of `O=C(Cc1ccc(O)c(Cl)c1)NCCc1ccccc1` ?
[A] 6.01

[Q] Tell me the measured pKi of `O=C(O)Cc1ccc(O)cc1` , please.
[A] 4.94

[Q] Item `COCCNC(=O)Cc1ccc(O)c(Cl)c1` has what recorded pKi?
[A] 5.94

[Q] Could you share which pKi value was measured for `COc1cc(C)cc2oc3ccc(O)c(C(=O)O)c3c(=O)c12` ?
[A] 4.94

[Q] What pKi value was documented for this compound, COC(=O)/C=C/C(=O)N[C@@H](Cc1ccc(O)c(Cl)c1)C(=O)O [(+)-XYLARIAMIDE A] ?
[A] 4.96

[Q] Fill in the blank: the reported pKi of `CC(C)(C)NC(=O)Cc1ccc(O)c(Cl)c1` is ____.
[A] 4.99

###

# Study Target: Carbonic anhydrase (Candida albicans (strain SC5314 / ATCC MYA-2876) (Yeast), UniProt Q5AJ71)
# Sequence (Q5AJ71 whole entry): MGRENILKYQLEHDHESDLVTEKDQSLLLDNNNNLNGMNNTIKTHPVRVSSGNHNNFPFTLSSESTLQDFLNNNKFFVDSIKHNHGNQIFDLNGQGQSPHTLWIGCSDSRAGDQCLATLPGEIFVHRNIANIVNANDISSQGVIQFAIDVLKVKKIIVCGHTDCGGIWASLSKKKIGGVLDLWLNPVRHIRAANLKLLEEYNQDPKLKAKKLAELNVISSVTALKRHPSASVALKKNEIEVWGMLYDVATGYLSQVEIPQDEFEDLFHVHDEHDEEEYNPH
Value Type: pKi
The scale used: pKi is minus the common logarithm of the concentration in molar units.

[Q] Can you look up the measured pKi of COC(=O)/C=C/C(=O)N[C@H](Cc1ccc(O)c(Cl)c1)C(=O)O [(-)-XYLARIAMIDE A] for me?
[A] 5.99

[Q] // lookup pKi for `NC(=O)Cc1ccc(O)c(Cl)c1`
[A] 6.00

[Q] Would you kindly share the measured pKi for `O=C(O)Cc1ccc(O)cc1` ?
[A] 5.99

[Q] Fill in the blank: the reported pKi of `COCCNC(=O)Cc1ccc(O)c(Cl)c1` is ____.
[A] 6.00

[Q] Item `COc1cc(CO)cc2oc3ccc(O)c(C(=O)O)c3c(=O)c12` has what recorded pKi?
[A] 6.00

[Q] Quick one: pKi of COC(=O)/C=C/C(=O)N[C@@H](Cc1ccc(O)c(Cl)c1)C(=O)O [(+)-XYLARIAMIDE A] ?
[A] 5.97

[Q] What does the data say about its pKi? Entry: COc1cc([C@@H]2[C@@H](C)[C@H](C)[C@H]2c2ccc(O)c(OC)c2)ccc1O [ENDIANDRIN A]
[A] 6.14

[Q] Requested read-out: pKi. Entry: COc1cc([C@@H]2[C@@H](C)[C@@H](C)[C@@H]2c2ccc(O)c(OC)c2)ccc1O [ENDIANDRIN B]
[A] 6.15
